Each recorded value in this set is attributed to patent US20120172293A1.

Target: T1, human Y2 receptor (human, UniProt P49146 1-381)
T1 sequence (looked up): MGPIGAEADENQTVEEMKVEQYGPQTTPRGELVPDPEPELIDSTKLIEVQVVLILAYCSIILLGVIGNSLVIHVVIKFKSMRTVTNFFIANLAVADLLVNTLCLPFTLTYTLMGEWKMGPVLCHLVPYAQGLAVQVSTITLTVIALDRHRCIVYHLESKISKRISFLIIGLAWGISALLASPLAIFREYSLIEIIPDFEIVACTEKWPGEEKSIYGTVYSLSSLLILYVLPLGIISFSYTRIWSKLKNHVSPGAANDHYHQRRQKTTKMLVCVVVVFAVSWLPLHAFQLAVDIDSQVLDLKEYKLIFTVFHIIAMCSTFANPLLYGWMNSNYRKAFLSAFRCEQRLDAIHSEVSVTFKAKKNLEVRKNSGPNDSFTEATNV
Experiment: cell-based or functional assay
Non-standard residues stand in square brackets, D forms with d. Cha = N[C@@H](CC1CCCCC1)C(=O)O; Aib = CC(C)(N)C(=O)O
Measured Attribute: GBA EC50 Ratio ([35S]GTPγS binding)

Item Ac-S[dP]RQ[Cha][Aib]NK[Aib]TRQR[Cha]-NH2 (SMILES CC(=O)N[C@@H](CO)C(=O)N1CCC[C@@H]1C(=O)N[C@@H](CCCNC(=N)N)C(=O)N[C@@H](CCC(N)=O)C(=O)N[C@@H](CC1CCCCC1)C(=O)NC(C)(C)C(=O)N[C@@H](CC(N)=O)C(=O)N[C@@H](CCCCN)C(=O)NC(C)(C)C(=O)N[C@H](C(=O)N[C@@H](CCCNC(=N)N)C(=O)N[C@@H](CCC(N)=O)C(=O)N[C@@H](CCCNC(=N)N)C(=O)N[C@@H](CC1CCCCC1)C(N)=O)[C@@H](C)O, also called compound No. 221) [Ac-[D-Pro24, Gln26, Cha27,36, Aib28,31, Lys30]-PYY(23-36)] has what recorded GBA EC50 Ratio ([35S]GTPγS binding)? 1.4 EC50 compound/EC50 PYY(3-36)
